- target: T1, human NPY2 receptor (human, UniProt P49146 1-381)
- T1 construct: whole, on cells; also called hNPY2-R; hNPY2R
- T1 sequence (looked up): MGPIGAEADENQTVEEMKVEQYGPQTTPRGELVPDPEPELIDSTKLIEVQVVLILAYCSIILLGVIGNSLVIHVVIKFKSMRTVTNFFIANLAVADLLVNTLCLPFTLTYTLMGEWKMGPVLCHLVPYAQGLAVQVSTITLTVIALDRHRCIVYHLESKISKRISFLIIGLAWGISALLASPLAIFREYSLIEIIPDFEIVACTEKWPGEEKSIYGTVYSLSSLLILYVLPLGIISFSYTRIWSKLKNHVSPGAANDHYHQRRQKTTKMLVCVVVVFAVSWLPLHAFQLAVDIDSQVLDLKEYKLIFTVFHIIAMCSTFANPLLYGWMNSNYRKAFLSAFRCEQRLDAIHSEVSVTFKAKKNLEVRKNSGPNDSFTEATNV
- experimentalDetails: RLB: displacement of 125I-PYY(1-36) from hNPY2R membranes
pKi: −log10 of the molar value. *1 amine or outer side, *2 acyl side, *3 side chain or, on linkers, in order; H or OH if unused. Side-chain parts run from the residue outwards. The star is where a group is joined. C18 diacid = O=C(O)CCCCCCCCCCCCCCCCC(=O)*; γGlu = O=C(O)[C@H](CCC(=O)[*:2])N[*:1]; Isovaleryl = CC(C)CC(=O)*; Ahx = NCCCCCC(=O)O
recordedMetric: pKi

Isovaleryl-APEK([Ahx-γGlu-C18 diacid])PEADASPEEIQRYYIALRHYYNWLTRQRY-NH2 [Compound 40] | 9.17
Isovaleryl-APAK([Ahx-γGlu-C18 diacid])PEEDASPEEIQRYYVSLRHYYNWLTRQRY-NH2 [Compound 63] | 9.03
Isovaleryl-APEK([Ahx-γGlu-C18 diacid])PEADATPEEIQRYYVSLRHYYNWLTRQRY-NH2 [Compound 7] | 8.98

(1) Isovaleryl-APEK([Ahx-γGlu-C18 diacid])PEAEASPEELQRYYVSLRHYYNWLTRQRY-NH2 [Compound 122]
(2) Isovaleryl-APEK([Ahx-γGlu-C18 diacid])PEADASPEELQRYYVALRHYYNWLTRQRY-NH2 [Compound 163]
(3) Isovaleryl-APEK([Ahx-γGlu-C18 diacid])PEADASPEEIQRYYVSLRHYYNWLTRQRY-NH2 [Compound 140]
Ask: Could you please sort these 3 entries by pKi from high to low? Please respond with the labels ordered as the question requires.
Result: 2, 3, 1
